# test-target: CHEK2 (human) (UniProt O96017)
# Sequence (O96017 whole entry, looked up): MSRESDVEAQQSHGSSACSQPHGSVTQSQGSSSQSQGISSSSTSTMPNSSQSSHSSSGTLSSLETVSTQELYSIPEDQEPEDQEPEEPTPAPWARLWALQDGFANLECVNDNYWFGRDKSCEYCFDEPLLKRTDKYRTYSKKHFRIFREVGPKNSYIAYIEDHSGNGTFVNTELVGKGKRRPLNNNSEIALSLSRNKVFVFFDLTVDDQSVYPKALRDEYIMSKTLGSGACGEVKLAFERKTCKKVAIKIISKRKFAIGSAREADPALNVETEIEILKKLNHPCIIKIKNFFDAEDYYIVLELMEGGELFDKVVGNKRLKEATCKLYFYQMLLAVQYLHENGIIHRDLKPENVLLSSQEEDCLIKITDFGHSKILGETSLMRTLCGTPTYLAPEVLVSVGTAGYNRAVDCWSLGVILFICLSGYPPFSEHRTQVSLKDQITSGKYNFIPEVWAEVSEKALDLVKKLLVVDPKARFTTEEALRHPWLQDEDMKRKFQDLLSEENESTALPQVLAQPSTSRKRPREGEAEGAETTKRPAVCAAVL
# experiment: KINOMEscan competition binding
# test-context: compound 10.0 µM
recorded-metric: kinase still bound, per cent of control (%)

compound	value-observed
CN(C)C/C=C/C(=O)Nc1cccc(Nc2ncc3c(n2)N(C)c2ccccc2C(=O)N3C)c1	94
C=CC(=O)Nc1cc(NC(=O)c2ccc(C)c(NC(=O)c3ccno3)c2)cc(C(F)(F)F)c1	96
C=CC(=O)Nc1cccc(Nc2nc(N[C@H]3CC[C@H](N(C)C)CC3)nc3c2ncn3C(C)C)c1	60
C[C@@H](Oc1cc(-n2cnc3ccc(CN4CCN(C)CC4)cc32)sc1C(N)=O)c1ccccc1C(F)(F)F	69
COc1cc(C(=O)NC2CCN(C)CC2)ccc1Nc1ncc2c(n1)N(C1CCCC1)C(C)CC(=O)N2C (stereo not given)	100
COc1cc(C(=O)NC2CCN(C)CC2)ccc1Nc1ncc2c(n1)N(C1CCCC1)CCC(=O)N2C(C)C	100
N#Cc1c(NC(=O)c2cccc3ccccc23)sc2c1CCCC2	84
Cc1ccc(C(=O)Nc2cccc(C(F)(F)F)c2)cc1Nc1cncc(C(N)=O)c1	100
Cc1cc([C@@H](C)Nc2ccccc2C(=O)O)c2nc(N3CCOCC3)cc(=O)n2c1	100
Cc1ccc2nc(NCCN)c3ncc(C)n3c2c1	97
O=C(O)c1ccc(Nc2ncc3c(n2)-c2ccc(Cl)cc2C(c2c(F)cccc2F)=NC3)cc1	100
CC[C@@H]1C(=O)N(C)c2cnc(Nc3ccc(C(=O)NC4CCN(C)CC4)cc3OC)nc2N1C1CCCC1	100
CCOc1cc2ncc(C#N)c(Nc3ccc(OCc4ccccn4)c(Cl)c3)c2cc1NC(=O)/C=C/CN(C)C	79
O=C(NC1CC1)c1cccc(-c2ccc3c(NC(=O)C4CC4)n[nH]c3c2)c1	100
C=CC(=O)Nc1cccc(Oc2nc(Nc3ccc(N4CCN(C)CC4)cc3OC)ncc2Cl)c1	8.8
CCN1CCN(Cc2ccc(Nc3ncc4c(n3)N(C)c3ccccc3C(=O)N4C)cc2C(F)(F)F)CC1	100
CCCS(=O)(=O)Nc1ccc(F)c(C(=O)c2c[nH]c3ncc(-c4ccc(Cl)cc4)cc23)c1F	100
Nc1ccc(-c2ccc3ncc4ccc(=O)n(-c5cccc(C(F)(F)F)c5)c4c3c2)cn1	100
COc1cc(N2CCN(C)CC2)ccc1Nc1nc(N)c(C(=O)c2c(Cl)cccc2Cl)s1	100
OCCCNc1cc(-c2ccnc(Nc3cccc(Cl)c3)n2)ccn1	100
CCC(=O)N1CCN(c2ccc(-n3c(=O)ccc4cnc5ccc(-c6cnc7ccccc7c6)cc5c43)cc2C(F)(F)F)CC1	100
Cn1c(=O)n(-c2ccc(C(C)(C)C#N)cc2)c2c3cc(-c4cnc5ccccc5c4)ccc3ncc21	100
O=C1Nc2ccc(I)cc2/C1=C/c1cc(Br)c(O)c(Br)c1	12
Cc1ccc(NC(=O)c2cccc(C(C)(C)C#N)c2)cc1Nc1ccc2ncn(C)c(=O)c2c1	92
O=C(NOC[C@H](O)CO)c1ccc(F)c(F)c1Nc1ccc(I)cc1F	86
